- assay_system: T1, HLA-A*02:01 (human)
- T1 construct: monomers captured on streptavidin plates; also called MHC class I
- method: UV peptide exchange ELISA
Listed binders paired with reported peptide exchange yield

Answered cases to consult:
binder: FLQPVDDTQHL
peptide exchange yield: 50 to 75%
--
binder: TLMTSLPAL
peptide exchange yield: 50 to 75%
--
binder: KVLDVSDLESV
peptide exchange yield: 20 to 50%

# context switch: different binder, same peptide exchange yield
## Task Requested read-out: peptide exchange yield. Entry: ILVDWLVQV
## Result 50 to 75%
